System: Plasmodium berghei
assay: Screen against P. berghei liver stage (PbLuc), transformed with Luciferase, at 10uM
Assay type: functional, HepG2
experimental-context: tested at 10 uM
The campaign covered roughly 69,000 compounds. About 8,600 (12%) showed an effect of 50% or more. The list comes from a sample in which strong results are over-represented; it also holds close analogues and randomly drawn compounds.
# INHIBITION listing for each entry below

compound: CCc1nc(C2CCCN2CCS(=O)(=O)c2ccccc2)no1 (stereo not drawn)
target-under-test: Plasmodium berghei
INHIBITION, %: 22.007

compound: COc1ccc(/C=C/CN2C[C@@H]3CC[C@H]2CN(S(=O)(=O)N(C)C)C3)cc1
target-under-test: Plasmodium berghei
INHIBITION, %: 38.6

compound: Cc1nnc2n1CCN(c1nn3cc(C(C)(C)C)nc3s1)C2
target-under-test: Plasmodium berghei
INHIBITION, %: -1.15

compound: O=C(O)[C@H]1OCC(=O)N(Cc2cccc(Cl)c2)[C@@H]1c1ccccc1
target-under-test: Plasmodium berghei
INHIBITION, %: 22

compound: O=C(c1ccc2c(c1)COC2)N1CCCC(n2cncn2)C1 (stereo not drawn)
target-under-test: Plasmodium berghei
INHIBITION, %: 0.411

compound: COc1ncc(NS(=O)(=O)c2ccc(F)c(F)c2)c(OC)n1
target-under-test: Plasmodium berghei
INHIBITION, %: 11.6

compound: CN(C)Cc1cc(C2CCCN(S(=O)(=O)c3cccc(Cl)c3)C2)nn1C (stereo not drawn)
target-under-test: Plasmodium berghei
INHIBITION, %: -14.2

compound: CCn1nccc1CNC(=O)CCC1CCCC1
target-under-test: Plasmodium berghei
INHIBITION, %: 13

compound: CCOC(C)c1nccn1Cc1c(C)noc1C (stereo not drawn)
target-under-test: Plasmodium berghei
INHIBITION, %: 3.19

compound: Cc1cccc(NC(=O)N2CCC3(CC(=O)N(c4ccsc4)C3)C2)c1 (stereo not drawn)
target-under-test: Plasmodium berghei
INHIBITION, %: 12.4

compound: Cc1cncc(C2CCN(Cc3ccc(S(C)(=O)=O)cc3)CC2)n1
target-under-test: Plasmodium berghei
INHIBITION, %: 25.3

compound: CC(C)N(Cc1cccc(Cl)c1)Cc1nc2c(cnn2C)c(=O)[nH]1
target-under-test: Plasmodium berghei
INHIBITION, %: 15.6

compound: CN(CCNC(=O)Nc1nccs1)Cc1ccc(F)cc1
target-under-test: Plasmodium berghei
INHIBITION, %: 2.7

compound: CC(C)CC(NC(=O)OC(C)(C)C)C(N)=O (stereo not drawn)
target-under-test: Plasmodium berghei
INHIBITION, %: 13.9

compound: Cc1ccccc1OCC(O)C(=O)N1CCC2(CC1)CN(C)C(=O)O2 (stereo not drawn)
target-under-test: Plasmodium berghei
INHIBITION, %: 39.6

compound: CN(CCNC(=O)Nc1ccn(C)n1)Cc1ccc(F)cc1
target-under-test: Plasmodium berghei
INHIBITION, %: 52.7

compound: Cc1cn(CC(=O)N(C)Cc2cccc3ncccc23)c(=O)[nH]c1=O
target-under-test: Plasmodium berghei
INHIBITION, %: -12.8

compound: Cc1nc(C2CCCN2CCCc2nc3ccccc3o2)no1 (stereo not drawn)
target-under-test: Plasmodium berghei
INHIBITION, %: 21.6

compound: CN(Cc1cccc(OCCO)c1)Cc1cccc2ncccc12
target-under-test: Plasmodium berghei
INHIBITION, %: 76.6

compound: CCOc1cncc(N2CCOCC2)n1
target-under-test: Plasmodium berghei
INHIBITION, %: 35.4

compound: O=C(Nc1nncs1)C1CSCN1C(=O)C1CCCC1 (stereo not drawn)
target-under-test: Plasmodium berghei
INHIBITION, %: 20.5

compound: O=C(O)C1CN(c2cccc(Cl)c2)CCO1 (stereo not drawn)
target-under-test: Plasmodium berghei
INHIBITION, %: -6.92

compound: CN(C)c1cc(C2CCCN2Cc2ccccc2OCC(=O)O)ccn1 (stereo not drawn)
target-under-test: Plasmodium berghei
INHIBITION, %: 24.4

compound: CC(C)OCCCN(Cc1cnn(C)c1)Cc1ccccn1
target-under-test: Plasmodium berghei
INHIBITION, %: -51.3

compound: Cc1nnc(NC(=O)C2CSCN2C(=O)C2CCCC2)s1 (stereo not drawn)
target-under-test: Plasmodium berghei
INHIBITION, %: 25.4

compound: COCC(=O)NCCC(=O)N1CCN(S(=O)(=O)c2cccc(Br)c2)CC1
target-under-test: Plasmodium berghei
INHIBITION, %: 63.8

compound: CCS(=O)(=O)N1CCCn2cnc(COc3cccnc3)c2C1
target-under-test: Plasmodium berghei
INHIBITION, %: 14.6

compound: CCc1nc(C2CCCN2CCCS(=O)(=O)c2ccccc2)no1 (stereo not drawn)
target-under-test: Plasmodium berghei
INHIBITION, %: 51.2

compound: COCC(=O)NCCC(=O)N1CCN(S(=O)(=O)c2ccc(Br)cc2)CC1
target-under-test: Plasmodium berghei
INHIBITION, %: 68.4

compound: CN(Cc1cccc(CCN)c1)Cc1cccc2ncccc12
target-under-test: Plasmodium berghei
INHIBITION, %: 20.3

compound: CN(CCCSc1ccccc1)C(=O)Cn1ncc(N(C)C)cc1=O
target-under-test: Plasmodium berghei
INHIBITION, %: 31.7

compound: Cc1ccccc1OC(C(=O)N1CCC2(CC1)CN(C)C(=O)O2)C(C)C (stereo not drawn)
target-under-test: Plasmodium berghei
INHIBITION, %: 41.5

compound: CNc1nc2cn(Cc3ccc(Cl)cc3)c(=O)c-2c[nH]1
target-under-test: Plasmodium berghei
INHIBITION, %: -14.7

compound: O=C(CN1C(=O)CCC1=O)NCc1cc(C2CC2)n(C2CCCC2)n1
target-under-test: Plasmodium berghei
INHIBITION, %: 13.9

compound: CN(C)c1ncccc1N(C)C(=O)Cn1cc(-c2ccccc2)nn1
target-under-test: Plasmodium berghei
INHIBITION, %: -0.85

compound: Cc1cnc(CCNc2cccc(CC3CCCNC3)n2)s1 (stereo not drawn)
target-under-test: Plasmodium berghei
INHIBITION, %: 41.5

compound: CC(C)NC(=O)C1CN(C(=O)COc2ccccc2)CC12CCOCC2 (stereo not drawn)
target-under-test: Plasmodium berghei
INHIBITION, %: 24.1

compound: Cn1ncc(C(=O)O)c1C(=O)Nc1nc2ccc(Br)cc2s1
target-under-test: Plasmodium berghei
INHIBITION, %: 6.27

compound: COCCN(Cc1cccc(OCCO)c1)Cc1ccccc1F
target-under-test: Plasmodium berghei
INHIBITION, %: 13

compound: Cc1ccc2nc(C(=O)N3C[C@@H](C(=O)O)[C@H](c4ccccc4)C3)cn2c1
target-under-test: Plasmodium berghei
INHIBITION, %: -46

compound: COCCC(=O)N1C[C@@H](c2ccc(F)c(F)c2)[C@@]2(CCCC(=O)N2)C1
target-under-test: Plasmodium berghei
INHIBITION, %: 17.4

compound: CN(Cc1cccc(O)c1)Cc1cnn(C)c1
target-under-test: Plasmodium berghei
INHIBITION, %: 10

compound: COc1ncc(NC(=O)c2ccco2)c(OC)n1
target-under-test: Plasmodium berghei
INHIBITION, %: 36.6

compound: CC(O)CN1CCC(CNCc2cccc(OC(F)(F)F)c2)CC1 (stereo not drawn)
target-under-test: Plasmodium berghei
INHIBITION, %: 35.4

compound: CS(=O)(=O)NCCC(=O)N1CCN(S(=O)(=O)c2ccc(Br)cc2)CC1
target-under-test: Plasmodium berghei
INHIBITION, %: 11.8

compound: CCS(=O)(=O)N1CC[C@H](OC)[C@@H]1Cc1ccncc1
target-under-test: Plasmodium berghei
INHIBITION, %: 28.4

compound: CNc1cc(C2CCCN(C(=O)c3ccc(=O)[nH]n3)C2)ccn1 (stereo not drawn)
target-under-test: Plasmodium berghei
INHIBITION, %: 15.5

compound: Cn1nc(COc2cccnc2)c2c1CCN(c1ncccn1)C2
target-under-test: Plasmodium berghei
INHIBITION, %: 53
